Biological target: thrombin (Homo sapiens)
Test: Measurement of the thrombin inhibition in buffer
Assay type: biochemical
Conditions: human thrombin 0.06 nmol/l in Tris buffer pH 7.4, 22° C., substrate Boc-Asp(OBzl)-Pro-Arg-AMC; in some cases means of individual determinations
pIC50: −log10 of the molar value.
Readout kind: pIC50

Answered examples (3):
| Molecule | pIC50 |
| --- | --- |
| COc1cc(C(=O)N2CC(C)OCC2CC(C)(C)O)cn2nc(NCc3cccc(Cl)c3)nc12 (single isomer, unassigned) [Example 43] | 7.09 |
| COc1cc(C(=O)N2CC(C)(CCO)OCC2(C)C)cn2nc(NCc3cccc(Cl)c3)nc12 (single isomer, unassigned) [Example 32] | 6.64 |
| COc1cc(C(=O)N2CC(C)(C)OCC2(C)CO)cn2nc(NCc3cccc(Cl)c3)nc12 (single isomer, unassigned) [Example 9] | 7.26 |

[P] COc1cc(C(=O)N2CC(C)(C)OCC2C(C)O)cn2nc(NCc3cccc(Cl)c3)nc12 (single isomer, unassigned) [Example 68]
[Q] COc1cc(C(=O)N2CC3CCN3C(=O)C2C)cn2nc(NCc3cccc(Cl)c3)nc12 (single isomer, unassigned) [Example 61]
[R] COc1cc(C(=O)N2CC(C)(CC(C)O)OC[C@H]2C)cn2nc(NCc3cccc(Cl)c3)nc12 (single isomer, unassigned) [Example 41]
Reorder the items by pIC50, least to greatest. Form entry: labels listed in requested order.
P, Q, R

###

Target: thrombin (Homo sapiens)
Assay: Thrombin-inhibitory activity in plasma samples (ecarin-activated)
Type: biochemical
Details: citrate plasma, ecarin activation, fluorogenic thrombin substrate; read at about 70% of maximum signal (about 12 min); in some cases means
Readout kind: IC50 (nM)

Answered examples (3):
| Compound | IC50 (nM) |
| --- | --- |
| COc1cc(C(=O)N2CC(C)(C)OCC2(C)CO)cn2nc(NCc3cccc(Cl)c3)nc12 (single isomer, unassigned) [Example 10] | 41 |
| COc1cc(C(=O)N2CC(C)OCC2CCO)cn2nc(NC(CF)c3cccc(Cl)c3)nc12 (single isomer, unassigned) [Example 18] | 15 |
| [2H]C([2H])(C)O[C@@H]1CC(CO)N(C(=O)c2cc(OC)c3nc(NCc4cccc(Cl)c4)nn3c2)C1 (single isomer, unassigned) [Example 74] | 19 |

[1] COCC1COC(C)(CCO)CN1C(=O)c1cc(OC)c2nc(NCc3cccc(Cl)c3)nn2c1 (single isomer, unassigned) [Example 72]
[2] COc1cc(C(=O)N2CC(C)OCC2(C)C)cn2nc(NCc3cccc(Cl)c3)nc12 (single isomer, unassigned)
Select the item with the higher value of IC50 from the options 1 and 2 listed. To answer, give the label that identifies your chosen option.
2
(2: 56 nM, 1: 34 nM)

###

Target: UniProtKB P00734
Experiment: Measurement of the thrombin inhibition in buffer
Format: biochemical
Details: human thrombin 0.06 nmol/l in Tris buffer pH 7.4, 22° C., substrate Boc-Asp(OBzl)-Pro-Arg-AMC; in some cases means of individual determinations
Readout kind: IC50 (nM)

| Compound | Measured target | Numeric result |
| --- | --- | --- |
| COc1cc(C(=O)N2CC(C)(C)OCC2CC(C)O)cn2nc(NCc3cccc(Cl)c3)nc12 (stereo not shown) [Example 45] | UniProtKB P00734 | 33 |
| COc1cc(C(=O)N2CC(C)(C)OCC2C2(O)CC2)cn2nc(NCc3cccc(Cl)c3)nc12 (single isomer, unassigned) | UniProtKB P00734 | 48 |

[I] COc1cc(C(=O)N2CC(C)(CCO)OCC2(C)C)cn2nc(NCc3cccc(Cl)c3)nc12 (single isomer, unassigned) [Example 33]
[II] COc1cc(C(=O)N2CC(C)OCC2CCO)cn2nc(NC(CF)c3cccc(Cl)c3)nc12 (single isomer, unassigned) [Example 19]
Select the item with the higher value of IC50 from the options I and II listed. To answer, give the label that identifies your chosen option.
II
(II: 11 nM, I: 4.5 nM)

Source of measurements: patent US20160108039A1
